meta.source: ChEMBL document CHEMBL4130451

- target_entity: hERG (KCNH2) (Homo sapiens)
- Sequence (Q12809 whole entry): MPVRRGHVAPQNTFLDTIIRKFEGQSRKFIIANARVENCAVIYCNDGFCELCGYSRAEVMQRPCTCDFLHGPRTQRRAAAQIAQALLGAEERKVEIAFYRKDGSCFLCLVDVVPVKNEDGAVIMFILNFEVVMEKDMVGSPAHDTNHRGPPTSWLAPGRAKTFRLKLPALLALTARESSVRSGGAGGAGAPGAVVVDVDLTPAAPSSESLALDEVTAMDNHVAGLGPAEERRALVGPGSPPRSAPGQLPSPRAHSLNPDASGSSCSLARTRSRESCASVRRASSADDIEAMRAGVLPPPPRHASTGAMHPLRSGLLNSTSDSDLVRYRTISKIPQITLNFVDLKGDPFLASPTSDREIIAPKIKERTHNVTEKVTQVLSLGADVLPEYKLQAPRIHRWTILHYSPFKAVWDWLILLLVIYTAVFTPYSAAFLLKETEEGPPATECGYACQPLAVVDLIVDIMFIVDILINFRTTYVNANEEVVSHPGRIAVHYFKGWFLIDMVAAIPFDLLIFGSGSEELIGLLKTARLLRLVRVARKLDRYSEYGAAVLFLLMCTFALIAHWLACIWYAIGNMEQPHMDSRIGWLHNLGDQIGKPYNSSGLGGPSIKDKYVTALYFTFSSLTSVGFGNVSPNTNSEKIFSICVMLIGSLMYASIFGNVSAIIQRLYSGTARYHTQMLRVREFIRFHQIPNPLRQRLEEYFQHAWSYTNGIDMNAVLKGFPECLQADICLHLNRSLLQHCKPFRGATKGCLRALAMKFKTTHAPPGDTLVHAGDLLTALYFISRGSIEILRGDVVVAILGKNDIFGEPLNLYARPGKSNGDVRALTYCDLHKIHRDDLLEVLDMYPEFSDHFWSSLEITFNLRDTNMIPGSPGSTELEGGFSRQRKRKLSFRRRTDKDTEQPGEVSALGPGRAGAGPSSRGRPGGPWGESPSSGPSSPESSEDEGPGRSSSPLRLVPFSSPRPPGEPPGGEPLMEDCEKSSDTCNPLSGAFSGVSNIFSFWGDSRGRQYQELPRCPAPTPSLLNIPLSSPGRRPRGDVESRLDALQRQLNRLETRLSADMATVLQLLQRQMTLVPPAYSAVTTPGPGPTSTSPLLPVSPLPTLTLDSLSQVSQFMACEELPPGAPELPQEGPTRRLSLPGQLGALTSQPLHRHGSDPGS
- assay_text: Inhibition of human ERG at 10 uM relative to control
experimental_readout: inhibition at 10 µM

>>> recorded_measurement("C[C@@H](COc1ccn(-c2ccc(F)cc2)c(=O)c1)Oc1ccccc1")
"> 50%"

---

- target_entity: Cytochrome P450 1A2 (Homo sapiens)
- Sequence (P05177 whole entry): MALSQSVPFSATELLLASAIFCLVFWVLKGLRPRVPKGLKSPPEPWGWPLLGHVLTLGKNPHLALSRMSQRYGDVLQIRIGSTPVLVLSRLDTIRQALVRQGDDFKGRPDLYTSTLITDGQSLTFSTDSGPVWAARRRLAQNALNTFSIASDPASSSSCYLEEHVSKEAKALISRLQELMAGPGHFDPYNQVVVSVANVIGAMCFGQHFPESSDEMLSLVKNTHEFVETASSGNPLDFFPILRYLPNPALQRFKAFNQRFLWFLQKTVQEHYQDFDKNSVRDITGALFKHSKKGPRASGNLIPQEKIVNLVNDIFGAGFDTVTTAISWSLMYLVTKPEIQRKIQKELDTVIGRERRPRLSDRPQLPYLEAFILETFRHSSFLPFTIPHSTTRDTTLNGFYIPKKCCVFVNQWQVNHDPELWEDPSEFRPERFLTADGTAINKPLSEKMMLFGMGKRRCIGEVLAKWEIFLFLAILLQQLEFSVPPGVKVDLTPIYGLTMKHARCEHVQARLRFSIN
pIC50: −log10 of the molar value.
experimental_readout: pIC50

>>> recorded_measurement("C[C@@H](COc1ccn(-c2ccc(F)cc2)c(=O)c1)Oc1ccccc1")
"< 4.52"

---

- assay_text: Kinetic solubility of the compound in PBS at pH 7.4
- Format: physicochemical
- reported_conditions: read-out: Kinetic_solubility
experimental_readout: solubility kinetic (µM)

>>> recorded_measurement("C[C@@H](COc1ccn(-c2ccc(F)cc2)c(=O)c1)Oc1ccccc1")
98

---

- target_entity: Metabotropic glutamate receptor 3 (Rattus norvegicus, UniProt P31422)
- Sequence (P31422 whole entry): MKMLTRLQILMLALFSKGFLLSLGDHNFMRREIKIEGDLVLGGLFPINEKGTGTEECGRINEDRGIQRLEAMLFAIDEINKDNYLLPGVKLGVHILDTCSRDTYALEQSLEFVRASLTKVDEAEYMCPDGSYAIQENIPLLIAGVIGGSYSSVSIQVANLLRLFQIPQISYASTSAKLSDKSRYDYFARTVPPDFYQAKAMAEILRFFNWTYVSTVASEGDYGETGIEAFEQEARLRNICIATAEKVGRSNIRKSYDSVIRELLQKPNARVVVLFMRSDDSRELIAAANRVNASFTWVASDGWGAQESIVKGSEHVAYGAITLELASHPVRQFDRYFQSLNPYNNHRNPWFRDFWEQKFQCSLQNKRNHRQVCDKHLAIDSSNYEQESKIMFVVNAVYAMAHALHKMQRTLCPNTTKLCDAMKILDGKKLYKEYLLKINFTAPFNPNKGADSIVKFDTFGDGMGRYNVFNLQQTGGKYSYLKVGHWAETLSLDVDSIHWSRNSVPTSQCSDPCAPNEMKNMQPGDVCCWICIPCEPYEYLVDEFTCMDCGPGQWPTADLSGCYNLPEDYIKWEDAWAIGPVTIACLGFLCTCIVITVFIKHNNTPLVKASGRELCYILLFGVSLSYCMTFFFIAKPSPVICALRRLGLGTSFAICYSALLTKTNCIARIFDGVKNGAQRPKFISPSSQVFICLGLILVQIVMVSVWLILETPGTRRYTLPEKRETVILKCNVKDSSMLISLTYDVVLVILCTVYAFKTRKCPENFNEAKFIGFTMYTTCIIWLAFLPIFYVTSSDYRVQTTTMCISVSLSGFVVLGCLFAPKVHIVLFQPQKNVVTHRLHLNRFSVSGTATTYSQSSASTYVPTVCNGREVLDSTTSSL
- assay_text: Negative allosteric modulation of rat mGlu3 receptor expressed in TREX cells coexpressing Galpha15 assessed as inhibition of glutamate induced-calcium mobilization preincubated for 2.3 mins followed by glutamate addition measured for 2.6 mins by Fluo-4 AM dye based fluorescence assay
experimental_readout: IC50 (nM)

>>> recorded_measurement("C[C@@H](COc1ccn(-c2ccc(F)cc2)c(=O)c1)Oc1ccccc1")
245
>>> recorded_measurement("N#Cc1cc(F)cc(-n2ccc(OCCOc3ccccc3)cc2=O)c1")
270
>>> recorded_measurement("N#Cc1cccc(-n2ccc(OCCOc3ccccc3)cc2=O)c1")
340
>>> recorded_measurement("O=c1cc(OCCOc2ccccc2)ccn1-c1cccc(F)c1")
390
>>> recorded_measurement("O=c1cc(OCCOc2cc(Cl)ccn2)ccn1-c1ccc(F)cc1")
1450
>>> recorded_measurement("CC(COc1ccn(-c2ccc(F)cc2)c(=O)c1)Oc1ccccc1 (stereo not drawn)")
1230
>>> recorded_measurement("O=c1nc(OCCOc2ccccc2)ccn1-c1ccc(F)cc1")
290

---

- target_entity: UniProtKB P31421
- Sequence (P31421 whole entry, looked up): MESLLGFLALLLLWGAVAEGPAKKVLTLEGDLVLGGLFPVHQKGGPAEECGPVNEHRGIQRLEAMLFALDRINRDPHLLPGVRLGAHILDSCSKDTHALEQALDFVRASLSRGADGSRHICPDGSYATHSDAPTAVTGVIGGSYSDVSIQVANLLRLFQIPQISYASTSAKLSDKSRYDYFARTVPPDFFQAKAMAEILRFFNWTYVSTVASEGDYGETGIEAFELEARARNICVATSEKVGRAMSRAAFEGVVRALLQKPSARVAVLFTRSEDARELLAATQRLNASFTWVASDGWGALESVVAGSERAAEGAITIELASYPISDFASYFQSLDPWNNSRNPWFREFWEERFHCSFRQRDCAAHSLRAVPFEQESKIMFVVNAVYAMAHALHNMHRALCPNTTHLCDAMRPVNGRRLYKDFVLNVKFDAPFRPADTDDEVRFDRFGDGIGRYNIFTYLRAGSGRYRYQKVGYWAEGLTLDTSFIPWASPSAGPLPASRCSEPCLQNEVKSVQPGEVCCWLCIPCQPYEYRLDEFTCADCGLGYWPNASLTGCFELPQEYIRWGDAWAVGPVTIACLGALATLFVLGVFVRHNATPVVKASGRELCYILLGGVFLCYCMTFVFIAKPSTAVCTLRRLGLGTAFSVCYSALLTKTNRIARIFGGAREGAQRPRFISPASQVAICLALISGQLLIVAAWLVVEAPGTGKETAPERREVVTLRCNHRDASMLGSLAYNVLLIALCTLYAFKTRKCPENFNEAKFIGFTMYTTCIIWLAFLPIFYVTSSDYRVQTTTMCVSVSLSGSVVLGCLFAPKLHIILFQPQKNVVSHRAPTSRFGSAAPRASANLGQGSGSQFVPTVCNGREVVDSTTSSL
- assay_text: Negative allosteric modulation of rat mGlu2 receptor expressed in HEK293 cells coexpressing Galpha15 assessed as inhibition of glutamate induced-calcium mobilization preincubated for 2.3 mins followed by glutamate addition measured for 1.9 mins by Fluo-4 AM dye based fluorescence assay
The entries below come with measured IC50 values attached.
experimental_readout: IC50

>>> recorded_measurement("O=c1nc(OCCOc2ccccc2)ccn1-c1ccc(F)cc1")
"> 30 µM"
>>> recorded_measurement("C[C@H](COc1ccn(-c2ccc(F)cc2)c(=O)c1)Oc1ccccc1")
"> 30 µM"
>>> recorded_measurement("C[C@@H](COc1ccn(-c2ccc(F)cc2)c(=O)c1)Oc1ccccc1")
"> 30 µM"

---

- target_entity: Metabotropic glutamate receptor 5 (Rattus norvegicus) (UniProt P31424)
- Sequence (P31424 21-1203 limits assumed): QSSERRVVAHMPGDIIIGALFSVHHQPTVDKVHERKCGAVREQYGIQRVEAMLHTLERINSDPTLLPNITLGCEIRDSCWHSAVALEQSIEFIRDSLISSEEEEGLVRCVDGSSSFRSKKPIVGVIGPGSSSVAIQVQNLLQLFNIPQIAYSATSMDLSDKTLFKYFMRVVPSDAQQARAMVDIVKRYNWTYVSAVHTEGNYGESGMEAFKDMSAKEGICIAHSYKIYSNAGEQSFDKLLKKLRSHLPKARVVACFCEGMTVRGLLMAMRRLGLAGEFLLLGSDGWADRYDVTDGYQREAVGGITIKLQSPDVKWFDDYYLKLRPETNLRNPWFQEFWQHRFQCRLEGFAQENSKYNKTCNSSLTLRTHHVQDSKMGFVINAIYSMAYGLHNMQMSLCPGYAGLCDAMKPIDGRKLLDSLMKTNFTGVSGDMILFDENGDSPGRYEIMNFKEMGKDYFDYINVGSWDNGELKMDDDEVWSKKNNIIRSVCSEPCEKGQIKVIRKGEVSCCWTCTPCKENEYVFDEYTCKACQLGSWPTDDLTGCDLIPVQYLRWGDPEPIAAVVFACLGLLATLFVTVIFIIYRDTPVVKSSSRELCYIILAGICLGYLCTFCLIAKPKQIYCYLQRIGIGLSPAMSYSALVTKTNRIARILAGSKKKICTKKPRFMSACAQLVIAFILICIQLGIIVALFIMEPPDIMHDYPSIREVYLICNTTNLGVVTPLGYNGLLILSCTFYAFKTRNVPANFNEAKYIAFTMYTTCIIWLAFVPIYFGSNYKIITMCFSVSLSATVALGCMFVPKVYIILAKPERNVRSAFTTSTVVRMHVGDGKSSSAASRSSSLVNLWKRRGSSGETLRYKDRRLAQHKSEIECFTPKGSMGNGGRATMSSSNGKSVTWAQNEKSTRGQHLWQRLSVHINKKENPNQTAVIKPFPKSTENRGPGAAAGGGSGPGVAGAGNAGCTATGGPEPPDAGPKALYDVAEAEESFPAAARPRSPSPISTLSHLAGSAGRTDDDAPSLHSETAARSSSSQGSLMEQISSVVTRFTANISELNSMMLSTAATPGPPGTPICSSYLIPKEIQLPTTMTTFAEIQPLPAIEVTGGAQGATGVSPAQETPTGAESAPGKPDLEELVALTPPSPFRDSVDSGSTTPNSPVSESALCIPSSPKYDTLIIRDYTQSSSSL
- assay_text: Positive allosteric modulation of rat mGlu5 receptor expressed in HEK293A cells assessed as increase in glutamate induced-calcium mobilization by measuring maximum glutamate response preincubated for 2.3 mins followed by glutamate addition measured for 1.9 mins by Fluo-4 AM dye based fluorescence assay relative to glutamate
- Type: functional, cell-based
Catalogue of molecules with associated Emax
experimental_readout: Emax (%)

>>> recorded_measurement("N#Cc1cc(F)cc(-n2ccc(OCCOc3ccccc3)cc2=O)c1")
27
>>> recorded_measurement("N#Cc1cccc(-n2ccc(OCCOc3ccccc3)cc2=O)c1")
87
>>> recorded_measurement("O=c1nc(OCCOc2ccccc2)ccn1-c1cccc(F)c1")
77
>>> recorded_measurement("O=c1cc(OCCOc2ccccc2)ccn1-c1cccc(F)c1")
88
>>> recorded_measurement("O=c1nc(OCCOc2ccccc2)ccn1-c1ccc(F)cc1")
97
>>> recorded_measurement("O=c1cc(OCCOc2ccccc2)ccn1-c1ccc(F)cc1")
97
>>> recorded_measurement("O=c1nc(OCCOc2ccccc2)ccn1-c1ccc(F)c(F)c1")
83
>>> recorded_measurement("O=c1cc(OCCOc2ccccc2)ccn1-c1ccc(F)c(F)c1")
91
>>> recorded_measurement("O=c1cc(OCCOc2cccc(F)c2)ccn1-c1ccc(F)cc1")
93
>>> recorded_measurement("O=c1cc(OCCOc2cc(Cl)ccn2)ccn1-c1ccc(F)cc1")
82
>>> recorded_measurement("O=c1cc(OCCOc2ncccc2Cl)ccn1-c1ccc(F)cc1")
94
